Origin of the recorded values: ChEMBL document CHEMBL1961873

- TARGET_DESC: Casein kinase II subunit alpha (Homo sapiens);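 also: reported value is the mean CK2 inhibition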
- SETTINGS: at 1 µM
REPORTED_ENDPOINT: inhibition (%)

COC(=O)Nc1nc2ccc(Oc3ccc(NC(=O)Nc4cccc(Cl)c4)cc3)cc2[nH]1 : 1.84
[O-][S+]1CCN(Cc2ccc(-c3ccc4ncnc(Nc5ccc(OCc6cccc(F)c6)c(Cl)c5)c4c3)o2)CC1 : 4.15
O=S(=O)(CCNCc1ccc(-c2ccc3ncnc(Nc4ccc(OCc5cccc(F)c5)c(Cl)c4)c3c2)o1)c1ccccc1 : 5.49
CCN1CCC(CC(=O)Nc2n[nH]c3nnc(-c4cccc(F)c4F)cc23)CC1 : 2.82
COc1cc(N2CCN(C(C)C)CC2)ccc1Nc1nc(Nc2ccc(F)cc2C(N)=O)c2cc[nH]c2n1 : 54.7
CC(=O)NCc1cccc(C#Cc2cncnc2Nc2ccc(OCc3cccc(F)c3)c(Cl)c2)c1 : 1.55
Nc1nc(-c2cccc(Cl)c2)c(-c2ccc3ncccc3n2)s1 : 15.3
c1ccc(COc2ccc(Nc3ncnc4ccc(-c5ccco5)cc34)cc2)cc1 : 4.42
c1cc(-c2cnn3nc(N4CCOCC4)ccc23)nc(NC2CC2)n1 : 7.14
COc1ccc2c(-c3ccnc(Nc4cccc(OC(F)(F)F)c4)n3)cnn2n1 : 20
Fc1ccc(-c2nn3ncccc3c2-c2ccnc(Nc3ccc4c(c3)OCCO4)n2)cc1 : 0.07
CS(=O)(=O)CCNCc1ccc(-c2ccc3ncnc(Nc4ccc(OCc5ccccc5)c(C(F)(F)F)c4)c3c2)o1 : 4.64
CNC(=O)c1cc(-c2ccc(F)cc2)cc(-c2ccc(S(=O)(=O)N3CCCC3)cc2)c1N : 3.05
CCc1nn2ncccc2c1-c1ccnc(NC2CC2)n1 : 4.59
COc1cccc(-c2c[nH]c3c(N/N=C/c4ccncc4)ncnc23)c1 : 43.7
Cc1ccc2c(-c3ccnc(Nc4ccccc4)n3)c(-c3ccc(F)cc3)nn2n1 : -2.67
COc1ccc(-c2cc3c(N)ncnc3o2)cc1 : 14.2
COc1ccc(-c2nn3ncccc3c2-c2ccnc(Nc3ccc4c(c3)OCCO4)n2)cc1 : 3.92
COc1ccc(-c2cc(-c3c[nH]nc3-c3ccccn3)ccn2)cc1 : 8.65
CNC(=O)c1cncc(/C=C/c2ccccc2Cl)c1 : 8.72

---

Entries and their inhibition
- Tested on: Tyrosine-protein kinase ABL1 (Homo sapiens), P00519 [Y253F]
- SETTINGS: at 1 µM
REPORTED_ENDPOINT: inhibition (%)

CCNC(=O)O[C@H]1CN[C@H](C#Cc2cc3ncnc(Nc4ccc(OCc5cccc(F)c5)c(Cl)c4)c3s2)C1 : 1.32
COc1ccc2[nH]c3c4[nH]c5ccc(OC)cc5c4c4c(c3c2c1)C(=O)NC4=O : 52.3
c1cc(-c2cnn3nc(N4CCOCC4)ccc23)nc(NC2CC2)n1 : 6.41
Fc1ccc(-c2nn3ccccc3c2-c2ccncc2)cc1 : 4.11
CN1CCC(n2cnc(-c3ccc(F)cc3)c2-c2ccnc(Nc3ccccc3)n2)CC1 : 9.91
Cc1cccc2c1NC(=O)/C2=N\Nc1ccc(S(N)(=O)=O)cc1 : 11.3
COc1cc(Nc2nccc(Nc3ccc4c(C)n[nH]c4c3)n2)cc(OC)c1OC : 83.6
CS(=O)(=O)CCNCc1ccc(-c2ccc3ncnc(Nc4ccc(OCc5ccccc5)c(C(F)(F)F)c4)c3c2)o1 : 3.49
O=C(O[C@H]1CN[C@H](C#Cc2cc3ncnc(Nc4ccc(Cc5ccccc5)cc4)c3s2)C1)N1CCOCC1 : 2.37
Nc1nc(-c2cccc(Cl)c2)c(-c2ccc3ncccc3n2)s1 : 15.3
CNC(=O)c1cncc(/C=C/c2ccccc2Cl)c1 : 27
CCn1c(-c2nonc2N)nc2cnc(Oc3cccc(NC(=O)c4ccc(N(C)C)cc4)c3)cc21 : 6.27
CCCN(CCS(C)(=O)=O)Cc1ccc(-c2ccc3ncnc(Nc4ccc(OCc5cccc(F)c5)c(Cl)c4)c3c2)o1 : 3.01
CN1CCC(n2cnc(-c3ccc(F)cc3)c2-c2ccnc(N)n2)CC1 : 8.15
NC(=O)c1sc(-n2cnc3ccc(C(F)(F)F)cc32)cc1OCc1ccccc1Br : 2.05
CCCN1CCC(c2ccc(Nc3nc(Nc4cc(F)ccc4C(N)=O)c4cc[nH]c4n3)c(OC)c2)CC1 : 8.34
Fc1ccc(-c2cc(-c3c[nH]nc3-c3ccccn3)ccn2)cc1 : 17.4
COc1cccc(-n2ncc3c(N/N=C/c4ccc(F)cc4)ncnc32)c1 : 86.1
COc1cc2ncn(-c3cc(OCc4ccccc4C(F)(F)F)c(C(=O)N(C)C)s3)c2cc1OC : 17.4
COc1cccc(-c2c[nH]c3c(N/N=C/c4ccncc4)ncnc23)c1 : 93.2
c1ccc(COc2ccc(Nc3ncnc4ccc(-c5ccco5)cc34)cc2)cc1 : 0.37
COc1cc2c(cc1Nc1nc(Nc3ccsc3C(N)=O)c3cc[nH]c3n1)N(C(=O)CN(C)C)CCC2(C)C : 4.27
COC(=O)Nc1nc2ccc(Oc3ccc(NC(=O)Nc4cccc(Cl)c4)cc3)cc2[nH]1 : 22
CC(C)(CO)CNC(=O)c1ccc2c(c1)/C(=N/Nc1ccc(S(N)(=O)=O)cc1)C(=O)N2 : 12.8
CN(C)CCOc1ccc(-c2nc(-c3ccncc3)c(-c3ccc4c(c3)CC/C4=N\O)[nH]2)cc1 : 40.1
CCc1nn2ncccc2c1-c1ccnc(NC2CC2)n1 : 4.43
CCOc1ccc2c(-c3ccnc(Nc4cccc(C(F)(F)F)c4)n3)cnn2n1 : 3.23
O=S(=O)(CCNCc1ccc(-c2ccc3ncnc(Nc4ccc(OCc5cccc(F)c5)c(Cl)c4)c3c2)o1)c1ccccc1 : 6.85
CC1=C(C(=O)Nc2cc(Cl)c3[nH]ncc3c2)C(c2ccc(C(F)(F)F)cc2)CC(=O)N1 (stereo not given) : 4.41
Nc1nc(-c2ccc(F)cc2)c(-c2ccc3ncccc3n2)s1 : 26.9
COc1ccc(-c2cc3c(N)ncnc3o2)cc1 : 10.8
CC(=O)Nc1cccc(C#Cc2cncnc2Nc2ccc(OCc3cccc(F)c3)c(Cl)c2)c1 : 3.28
NS(=O)(=O)c1ccc(N/N=C2\C(=O)Nc3ccc4ncccc4c32)cc1 : 49.8
COC(=O)c1sc(-n2cnc3cc(OC)c(OC)cc32)cc1OCc1ccccc1C(F)(F)F : 21.6
Nc1ncc(-c2cccc(S(N)(=O)=O)c2)c2scc(-c3ccc(F)c(Cl)c3)c12 : 92.4
c1ccc(-c2nc3n(c2-c2ccc4c(c2)OCO4)CCC3)nc1 : 3.95
CCn1cc(-c2ccnc3[nH]ccc23)c(-c2cccc(NC(=O)Nc3ccc(OCc4ccccc4)cc3)c2)n1 : 0.94
COc1ccc(-c2cc(-c3c[nH]nc3-c3ccccn3)ccn2)cc1 : 48.3
O=C(Nc1n[nH]c2cc(-c3ccc(F)cc3)ccc12)C1CC1 : 40.1
CS(=O)(=O)CCNCc1coc(-c2ccc3ncnc(Nc4ccc(OCc5ccccc5)cc4)c3c2)c1 : 2.89

---

- TARGET_DESC: Tyrosine-protein kinase Lyn (Homo sapiens);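 also: mean inhibition of the LYN A splice variant of the kinase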
- SETTINGS: at 0.1 µM
- Description: GSK_PKIS: LYN A (splice variant) mean inhibition at 0.1 uM [Nanosyn]
I would appreciate it if you labelled entries True when inhibition is 5% or higher, otherwise False.

CCN1CCC(CC(=O)Nc2n[nH]c3nnc(-c4cccc(F)c4F)cc23)CC1 : False
Clc1ccc(-c2nn3ncccc3c2-c2ccnc(Nc3ccccc3)n2)cc1 : True
Cc1cccc(Nc2ncc(-c3ccccc3)o2)c1 : False
CC(C)COC(=O)c1ccc2c(c1)/C(=C/Nc1ccc(S(N)(=O)=O)cc1)C(=O)N2 : False
COc1cc(/C=N/Nc2ncnc3[nH]ncc23)ccc1O : True
c1ccc(COc2ccc(Nc3ncnc4ccc(-c5ccco5)cc34)cc2)cc1 : False
NC(=O)c1sc(-n2cnc3ccc(C(F)(F)F)cc32)cc1OCc1ccccc1Br : True
CCN(CC)S(=O)(=O)c1ccc(OC)c(Nc2ncc(-c3ccccc3)o2)c1 : False
CNC(=O)c1cc(-c2ccc(F)cc2)cc(-c2ccc(S(=O)(=O)N3CCCC3)cc2)c1N : False
N#Cc1c(NC(=O)CN2CCOCC2)sc2c1CCCC2 : False

---

- TARGET_DESC: Leucine-rich repeat serine/threonine-protein kinase 2 (Homo sapiens) (UniProt Q5S007);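 also: reported values are averaged percent inhibition of LRRK2 kinase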
- Sequence (Q5S007 whole entry): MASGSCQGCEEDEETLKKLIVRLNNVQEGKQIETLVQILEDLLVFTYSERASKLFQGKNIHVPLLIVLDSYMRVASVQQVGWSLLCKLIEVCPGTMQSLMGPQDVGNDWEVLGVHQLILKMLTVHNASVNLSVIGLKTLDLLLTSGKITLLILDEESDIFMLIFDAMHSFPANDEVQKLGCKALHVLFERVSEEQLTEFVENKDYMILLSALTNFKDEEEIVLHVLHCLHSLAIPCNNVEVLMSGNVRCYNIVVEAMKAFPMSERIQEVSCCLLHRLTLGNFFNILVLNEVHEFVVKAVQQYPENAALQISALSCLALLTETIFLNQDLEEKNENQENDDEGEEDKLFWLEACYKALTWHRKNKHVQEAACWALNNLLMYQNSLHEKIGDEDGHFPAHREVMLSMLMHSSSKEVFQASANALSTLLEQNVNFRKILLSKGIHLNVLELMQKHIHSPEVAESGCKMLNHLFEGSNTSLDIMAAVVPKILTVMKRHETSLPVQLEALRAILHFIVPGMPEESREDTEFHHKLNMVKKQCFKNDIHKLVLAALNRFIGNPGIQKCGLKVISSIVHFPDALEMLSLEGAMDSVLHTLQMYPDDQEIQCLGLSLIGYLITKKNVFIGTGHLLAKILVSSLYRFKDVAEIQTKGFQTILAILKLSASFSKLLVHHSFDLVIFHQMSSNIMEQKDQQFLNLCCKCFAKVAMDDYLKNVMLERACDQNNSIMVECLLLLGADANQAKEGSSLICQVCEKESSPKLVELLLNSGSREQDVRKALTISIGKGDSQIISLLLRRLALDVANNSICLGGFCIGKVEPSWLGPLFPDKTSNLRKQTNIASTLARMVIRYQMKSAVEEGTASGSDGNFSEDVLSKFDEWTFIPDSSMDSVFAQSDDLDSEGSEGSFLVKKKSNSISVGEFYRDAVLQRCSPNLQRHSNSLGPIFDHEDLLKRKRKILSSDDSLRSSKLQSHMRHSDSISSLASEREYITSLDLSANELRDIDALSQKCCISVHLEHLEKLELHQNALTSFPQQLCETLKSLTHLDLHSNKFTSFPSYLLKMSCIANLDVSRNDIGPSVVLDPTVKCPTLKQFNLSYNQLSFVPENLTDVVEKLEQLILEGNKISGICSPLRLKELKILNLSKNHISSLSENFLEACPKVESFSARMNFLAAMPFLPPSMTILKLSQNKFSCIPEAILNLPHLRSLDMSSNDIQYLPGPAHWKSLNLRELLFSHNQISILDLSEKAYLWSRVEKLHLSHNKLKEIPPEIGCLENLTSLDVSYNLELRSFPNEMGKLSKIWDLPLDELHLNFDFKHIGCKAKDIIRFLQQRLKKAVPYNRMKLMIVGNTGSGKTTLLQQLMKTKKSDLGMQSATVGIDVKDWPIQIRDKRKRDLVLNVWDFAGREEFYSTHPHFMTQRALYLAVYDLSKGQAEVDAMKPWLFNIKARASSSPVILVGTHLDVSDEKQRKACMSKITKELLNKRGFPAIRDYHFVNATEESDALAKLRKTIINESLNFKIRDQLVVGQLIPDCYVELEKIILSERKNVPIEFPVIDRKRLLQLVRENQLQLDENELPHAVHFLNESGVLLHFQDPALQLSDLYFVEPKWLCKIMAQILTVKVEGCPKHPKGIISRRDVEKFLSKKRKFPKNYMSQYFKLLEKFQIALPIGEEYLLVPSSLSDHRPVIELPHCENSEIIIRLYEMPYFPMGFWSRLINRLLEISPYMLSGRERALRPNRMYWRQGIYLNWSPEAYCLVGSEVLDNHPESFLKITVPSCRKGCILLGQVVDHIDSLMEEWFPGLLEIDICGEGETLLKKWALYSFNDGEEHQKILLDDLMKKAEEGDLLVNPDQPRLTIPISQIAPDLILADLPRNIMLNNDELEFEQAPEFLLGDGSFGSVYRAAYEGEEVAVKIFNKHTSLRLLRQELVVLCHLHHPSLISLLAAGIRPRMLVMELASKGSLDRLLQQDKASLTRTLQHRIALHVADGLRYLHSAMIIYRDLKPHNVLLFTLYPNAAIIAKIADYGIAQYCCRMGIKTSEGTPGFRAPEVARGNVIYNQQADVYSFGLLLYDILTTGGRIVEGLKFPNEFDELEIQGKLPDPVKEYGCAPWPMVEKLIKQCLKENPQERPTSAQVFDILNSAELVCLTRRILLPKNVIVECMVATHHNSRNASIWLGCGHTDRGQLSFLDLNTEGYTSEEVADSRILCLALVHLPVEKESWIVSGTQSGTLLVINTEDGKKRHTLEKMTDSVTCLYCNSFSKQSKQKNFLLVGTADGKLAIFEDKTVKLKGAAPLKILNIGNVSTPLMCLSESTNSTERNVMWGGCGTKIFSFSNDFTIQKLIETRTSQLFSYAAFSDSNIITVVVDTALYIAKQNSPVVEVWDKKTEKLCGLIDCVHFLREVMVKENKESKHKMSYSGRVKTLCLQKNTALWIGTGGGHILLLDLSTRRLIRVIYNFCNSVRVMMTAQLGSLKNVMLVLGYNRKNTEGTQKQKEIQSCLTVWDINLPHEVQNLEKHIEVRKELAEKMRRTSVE
- SETTINGS: at 0.1 µM
REPORTED_ENDPOINT: inhibition (%)

COc1cc(Nc2nccc(Nc3ccc4c(C)n[nH]c4c3)n2)cc(OC)c1OC : 9.84
COc1cc(N2CCN(C(C)C)CC2)ccc1Nc1nc(Nc2ccc(F)cc2C(N)=O)c2cc[nH]c2n1 : 84.9
COc1ccc(-c2cc3c(N)ncnc3o2)cc1 : 0.9
Fc1cccc(COc2ccc(Nc3ncnc4sc(-c5ccco5)cc34)cc2Cl)c1 : 3.64
Nc1ncc(-c2cccc(S(N)(=O)=O)c2)c2scc(-c3ccc(F)c(Cl)c3)c12 : 10.2
CCN(CC)S(=O)(=O)c1ccc(OC)c(Nc2ncc(-c3ccccc3)o2)c1 : 2.62
CCCN1CCC(c2ccc(Nc3nc(Nc4cc(F)ccc4C(N)=O)c4cc[nH]c4n3)c(OC)c2)CC1 : 85.5
CCn1cc(-c2ccnc3[nH]ccc23)c(-c2cccc(NC(=O)Nc3ccc(OCc4ccccc4)cc3)c2)n1 : 2.13
